Some compounds, each annotated with its measured IC50.
Tested on: neutrophils
protocolSummary: Neutrophil calcium flux assay (5-OXO-ETE-stimulated, Indo-1 fluorescence)
Format: cell-based
conditionDetails: Neutrophil, 5-OXO-ETE-stimulated calcium flux

Observe how each entry below is paired with its result.
[[record]]
compound = "CCCCCCc1cc2ccc(Cl)cc2n1C(=O)C[C@H](C)CC(=O)O [Compound I-12]"
reading = "> 300 nM"

[[record]]
compound = "C[C@H](CC(=O)O)CC(=O)c1c(CCCCOCc2cccc(C#N)c2)n(C)c2ncc(Cl)cc12 [Compound I-212]"
reading = "< 100 nM"

[[record]]
compound = "C[C@@H](CC(=O)O)CC(=O)c1c(CCCCCCc2cccc(Cl)c2)oc2ccc(Cl)cc12 [Compound I-22]"
reading = "> 300 nM"

[[record]]
compound = "C[C@@H](CC(=O)O)CC(=O)c1c(CCCCOCc2cccc(C#N)c2)n(C)c2ncc(Cl)cc12 [Compound I-213]"
reading = "> 300 nM"

[[record]]
compound = "C[C@H](CC(=O)O)CC(=O)c1c(CCCCOCc2ccccc2)n(C)c2ncccc12 [Compound I-101]"
reading = "> 300 nM"


Annotate the compound C[C@H](CC(=O)O)CC(=O)c1c(CCCCCNc2ccccn2)n(C)c2ccc(Cl)cc12 [Compound I-128] with its measured IC50.
> 300 nM

Annotate the compound Cn1c(CCCCCCC#CC2CC(F)(F)C2)c(C(=O)N2CC[C@H](C(=O)NS(=O)(=O)C(F)(F)F)C2)c2cc(C#N)cnc21 [Compound I-364] with its measured IC50.
> 300 nM

Annotate the compound C[C@H](CC(=O)c1c(CCCCOCc2ccccc2)n(C)c2ncc(C#N)cc12)Cc1nnn[nH]1 (stereo in doubt) [Compound I-360] with its measured IC50.
> 300 nM

Annotate the compound CC(=O)NCCCCCc1c(C(=O)C[C@H](C)CC(=O)O)c2cc(Cl)ccc2n1C [Compound I-126] with its measured IC50.
> 300 nM

Annotate the compound CC(CC(=O)O)CC(=O)c1c(CCCCCCc2cscn2)n(C)c2ncc(C#N)cc12 (stereo not drawn) [Compound I-373] with its measured IC50.
100 to 300 nM

Annotate the compound Cn1c(CCCCOCc2cccc(Cl)c2)c(C(=O)N2CC[C@H](c3nnn[nH]3)C2)c2cc(C(F)(F)F)ccc21 [Compound I-188] with its measured IC50.
100 to 300 nM

----------
Test system: neutrophils
protocolSummary: Neutrophil calcium flux assay (5-OXO-ETE-stimulated, Indo-1 fluorescence)
Type: cell-based
conditionDetails: Neutrophil, 5-OXO-ETE-stimulated calcium flux
pIC50: −log10 of the molar value.
Some compounds, each annotated with its measured pIC50.

Observe how each entry below is paired with its result.
[[record]]
compound = "CC(=O)Nc1cccc(C(O)CCCCCc2c(C(=O)CC(C)CC(=O)O)c3cc(C#N)cnc3n2C)c1 (centres unmarked)"
systemundertest = "neutrophils"
reading = "< 6.52"

[[record]]
compound = "C[C@@H](CC(=O)c1c(CCCCCCc2cccc(Cl)c2)n(C)c2ncc(Cl)cc12)Cc1nnn[nH]1"
systemundertest = "neutrophils"
reading = "> 7.00"

[[record]]
compound = "C[C@H](CC(=O)O)CC(=O)c1c(CCCCCOCc2ccccc2)n(C)c2ncc(C#N)cc12"
systemundertest = "neutrophils"
reading = "6.52 to 7.00"

[[record]]
compound = "C[C@H](CC(=O)NO)CC(=O)c1c(CCCCCCc2cccc(Cl)c2)n(C)c2ccc(Cl)cc12"
systemundertest = "neutrophils"
reading = "< 6.52"


Annotate the compound C[C@H](CC(=O)O)CC(=O)c1c(CCCCC[C@@H](O)c2cccc(Cl)c2)n(C)c2ncc(Cl)cc12 with its measured pIC50.
> 7.00

Annotate the compound Cn1c(CCCCCCC#CC2CC(F)(F)C2)c(C(=O)N2CC[C@H](C(=O)NCCS(=O)(=O)O)C2)c2cc(C#N)cnc21 with its measured pIC50.
< 6.52

Annotate the compound COc1cccc(COCCCCc2c(C(=O)CC(C)CC(=O)O)c3cc(Cl)cnc3n2C)c1 (centres unmarked) with its measured pIC50.
6.52 to 7.00

Annotate the compound C[C@H](CC(=O)NS(C)(=O)=O)CC(=O)c1c(CCCCCCc2cccc(Cl)c2)n(C)c2ccc(Cl)cc12 with its measured pIC50.
6.52 to 7.00

----------
System: neutrophils
protocolSummary: Neutrophil calcium flux assay (5-OXO-ETE-stimulated, Indo-1 fluorescence)
Type: cell-based
conditionDetails: Neutrophil, 5-OXO-ETE-stimulated calcium flux
readoutName: IC50

[[record]]
compound = "C[C@@H](CC(=O)c1c(CCCCOCc2cccc(Cl)c2)n(C)c2ncc(Cl)cc12)Cc1nnn[nH]1"
reading = "< 100 nM"

[[record]]
compound = "CONC(=O)C[C@@H](C)CC(=O)c1c(CCCCCCc2cccc(Cl)c2)n(C)c2ccc(Cl)cc12"
reading = "> 300 nM"

[[record]]
compound = "C[C@@H](CC(=O)c1c(CCCCCCC#CC2CC(F)(F)C2)n(C)c2ccc(Cl)cc12)Cc1nnn[nH]1"
reading = "< 100 nM"

[[record]]
compound = "C[C@@H](CC(=O)O)CC(=O)c1c(CCCCOCc2cccc(Cl)c2)n(C)c2cnc(Cl)cc12"
reading = "> 300 nM"

[[record]]
compound = "Cn1c(CCCCCCc2cccc(Cl)c2)c(C(=O)N2CCC(C)(C(=O)O)C2)c2cc(Cl)ccc21 (stereo not drawn)"
reading = "> 300 nM"

[[record]]
compound = "C[C@H](OCCCCc1c(C(=O)N2CC[C@H](C(=O)O)[C@H]2C)c2cc(C#N)cnc2n1C)c1ccccc1"
reading = "> 300 nM"


Annotate the compound Cn1c(CCCCCC#CC2CC(F)(F)C2)c(C(=O)N2CC[C@H](C(=O)O)C2)c2cc(C#N)cnc21 with its measured IC50.
> 300 nM

Annotate the compound C[C@H](CC(=O)O)CC(=O)c1c(CCCCCCC#CC2CCC2)n(C)c2ccc(Cl)cc12 with its measured IC50.
> 300 nM

Annotate the compound C[C@@H](CC(=O)O)CC(=O)c1c(CCCCCCc2cccc(Cl)c2)n(CCO)c2ncc(C#N)cc12 with its measured IC50.
> 300 nM

Annotate the compound C[C@H](CC(=O)O)CC(=O)c1c(CCCCOCC2(C(F)(F)F)CC2)n(C)c2ccc(Cl)cc12 with its measured IC50.
> 300 nM

Annotate the compound C[C@H](CC(=O)O)CC(=O)c1c(CCCCCCc2ccccn2)n(C)c2ccc(Cl)cc12 with its measured IC50.
100 to 300 nM

Annotate the compound CC(CC(=O)O)CC(=O)c1c(CCCCCC(O)c2cccc(C(=O)N(C)C)c2)n(C)c2ncc(C#N)cc12 (stereo not drawn) with its measured IC50.
< 100 nM

Annotate the compound C[C@@H](CC(=O)O)CC(=O)c1c(CCCCOCc2ccccc2)n(C)c2ncc(C#N)cc12 with its measured IC50.
> 300 nM

Annotate the compound C[C@H](CC(=O)O)CC(=O)c1c(CCCCCOc2ncccn2)n(C)c2ccc(Cl)cc12 with its measured IC50.
> 300 nM

Annotate the compound C[C@H](CC(=O)O)CC(=O)c1c(CCCCOCc2cccc(C#N)c2)n(C)c2cnc(Cl)cc12 with its measured IC50.
< 100 nM

----------
systemUnderTest: UniProtKB Q8TDS5
Sequence (Q8TDS5 whole entry): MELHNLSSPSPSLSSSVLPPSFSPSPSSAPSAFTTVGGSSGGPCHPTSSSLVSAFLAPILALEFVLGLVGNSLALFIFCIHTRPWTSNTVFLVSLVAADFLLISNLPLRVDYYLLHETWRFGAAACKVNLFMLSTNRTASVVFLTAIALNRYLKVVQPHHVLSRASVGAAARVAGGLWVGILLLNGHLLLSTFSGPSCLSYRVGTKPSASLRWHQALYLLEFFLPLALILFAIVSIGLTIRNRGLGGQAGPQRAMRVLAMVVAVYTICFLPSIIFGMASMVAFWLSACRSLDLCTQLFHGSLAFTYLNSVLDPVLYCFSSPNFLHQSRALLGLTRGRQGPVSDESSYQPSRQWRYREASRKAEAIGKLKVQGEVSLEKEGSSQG
protocolSummary: BRET early endosome trafficking assay (OXER1-Rluc8 / rGFP-FYVE in HEK293 cells)
conditionDetails: HEK293 cells transfected with OXER1-Rluc8 and rGFP-FYVE, 5-oxo-ETE agonist
Some compounds, each annotated with its measured IC50.

Observe how each entry below is paired with its result.
[[record]]
compound = "CC(C)C#CCCCCCCc1c(C(=O)C[C@H](C)CC(=O)O)c2cc(Cl)ccc2n1C [Compound I-68]"
reading = "< 100 nM"

[[record]]
compound = "C[C@@H](CC(=O)O)CC(=O)c1c([C@@H](O)CCCCCc2cccc(Cl)c2)n(C)c2ccc(Cl)cc12 [Compound I-4]"
reading = "> 300 nM"

[[record]]
compound = "C[C@H](CC(=O)O)CC(=O)c1c(CCCCOCc2cccc(Cl)c2)n(C)c2ncc(C(F)(F)F)cc12 [Compound I-182]"
reading = "100 to 300 nM"

[[record]]
compound = "C[C@@H](CC(=O)O)CC(=O)c1c(CCCCCCc2ccccc2)n(C)c2ccc(Cl)cc12 [Compound I-8]"
reading = "> 300 nM"

[[record]]
compound = "C[C@H](CC(=O)O)CC(=O)c1c(CCCCCC(=O)c2cccc(Cl)c2)n(C)c2ccc(Cl)cc12 [Compound I-45]"
reading = "100 to 300 nM"


Please examine the following record next.
Annotate the compound CC(C)CCOCc1c(C(=O)C[C@H](C)CC(=O)O)c2cc(Cl)ccc2n1C [Compound I-73] with its measured IC50.
> 300 nM

----------
Tested on: neutrophils
protocolSummary: Neutrophil calcium flux assay (5-OXO-ETE-stimulated, Indo-1 fluorescence)
Type: cell-based
conditionDetails: Neutrophil, 5-OXO-ETE-stimulated calcium flux
Some compounds, each annotated with its measured IC50.

Observe how each entry below is paired with its result.
[[record]]
compound = "C[C@H](CC(=O)O)CC(=O)c1c(CCCCCOc2cnccn2)n(C)c2ccc(Cl)cc12 [Compound I-132]"
reading = "> 300 nM"

[[record]]
compound = "C[C@H](CC(=O)O)CC(=O)c1c(CCCCCCc2cccc(Cl)c2)n(C)c2ccc(OC(F)(F)F)cc12 [Compound I-97]"
reading = "< 100 nM"

[[record]]
compound = "C[C@@H](CC(=O)O)CC(=O)c1c(CCCCO[C@H](C)c2ccccc2)n(C)c2ncc(C#N)cc12 [Compound I-433]"
reading = "> 300 nM"

[[record]]
compound = "CC(CC(=O)O)CC(=O)c1c(CCCCOCc2cncc(C#N)c2)n(C)c2ncc(Cl)cc12 (stereo not drawn) [Compound I-445]"
reading = "> 300 nM"

[[record]]
compound = "C[C@@H](CC(=O)O)CC(=O)c1c(CCCCOCc2cccc(OC(F)(F)F)c2)n(C)c2ncc(C#N)cc12 [Compound I-390]"
reading = "> 300 nM"


Annotate the compound C[C@H](CC(=O)O)CC(=O)c1c(CCOCCCc2cccc(Cl)c2)n(C)c2ccc(Cl)cc12 [Compound I-62] with its measured IC50.
< 100 nM

Annotate the compound C[C@H](CC(=O)O)CC(=O)c1c(CCCCCOc2ccccn2)n(C)c2ccc(Cl)cc12 [Compound I-131] with its measured IC50.
> 300 nM

Annotate the compound C[C@H](CC(=O)O)CC(=O)c1c(CCCCCNC(=O)C2CC2)n(C)c2ccc(Cl)cc12 [Compound I-127] with its measured IC50.
> 300 nM

Annotate the compound C[C@H](CC(=O)O)CC(=O)c1c(CCOCCCC#CC2CC(F)(F)C2)n(C)c2ccc(Cl)cc12 [Compound I-326] with its measured IC50.
< 100 nM

Each recorded value in this set is attributed to patent US20250154145A1.
